Cited source for all entries: patent US10786580B2

molecular target: CCK2R (Homo sapiens, UniProt P32239); assay: In vitro binding of CCK2R-NIR compounds to HEK-CCK2R cells (cell bound fluorescence); parameters: expressed in transfected cells; host or cells: HEK (human embryonic kidney) cells, HEK-CCK2R, gift from Dr. Mark Hellmich (UTMB); details: in vitro binding affinity data, HEK-CCK2R cells
Observable: affinity for CCK2R (in words)

smiles_representation=CC(C)(C)C(=O)CN1C(=O)[C@@H](NC(=O)Nc2cccc(C(=O)N[C@H](CCC(=O)O)C(=O)N[C@H](Cc3ccc(OC4=C(/C=C/C5=[N+](CCCCS(=O)(=O)[O-])c6ccc(S(=O)(=O)O)cc6C5(C)C)CCC/C4=C\C=C4\N(CCCCS(=O)(=O)O)c5ccc(S(=O)(=O)O)cc5C4(C)C)cc3)C(=O)O)c2)CN(C2CCCCC2)c2ccccc21 measured_result="very high affinity"
smiles_representation=CC(C)(C)C(=O)CN1C(=O)[C@H](NC(=O)Nc2cccc(C(=O)NCCCC(=O)N[C@@H](Cc3ccc(OC4=C(/C=C/C5=[N+](CCCCS(=O)(=O)[O-])c6ccc(S(=O)(=O)O)cc6C5(C)C)CCC/C4=C\C=C4\N(CCCCS(=O)(=O)O)c5ccc(S(=O)(=O)O)cc5C4(C)C)cc3)C(=O)O)c2)CN(C2CCCCC2)c2ccccc21 measured_result="very high affinity"

###

Target: CCK2R (Homo sapiens, UniProt P32239)
Sequence (P32239 1-447): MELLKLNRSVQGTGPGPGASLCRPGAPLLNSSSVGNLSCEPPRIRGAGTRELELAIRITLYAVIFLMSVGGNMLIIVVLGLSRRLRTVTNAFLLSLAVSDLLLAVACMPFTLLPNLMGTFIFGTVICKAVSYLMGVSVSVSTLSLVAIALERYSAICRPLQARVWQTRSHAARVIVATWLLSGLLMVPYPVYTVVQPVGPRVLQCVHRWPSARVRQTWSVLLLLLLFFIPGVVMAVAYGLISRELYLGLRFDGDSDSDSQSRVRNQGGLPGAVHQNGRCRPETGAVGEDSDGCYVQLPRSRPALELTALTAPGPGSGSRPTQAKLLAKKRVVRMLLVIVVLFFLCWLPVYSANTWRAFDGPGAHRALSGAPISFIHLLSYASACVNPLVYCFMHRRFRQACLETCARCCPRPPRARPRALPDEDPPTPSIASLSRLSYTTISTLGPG
Assay: In vitro binding of CCK2R-NIR compounds to HEK-CCK2R cells (cell bound fluorescence)
Set-up: expressed in transfected cells; host or cells: HEK (human embryonic kidney) cells, HEK-CCK2R, gift from Dr. Mark Hellmich (UTMB)
Conditions: Table 2; CCK2R-positive HEK-CCK2R cancer cells, 1 h at 37° C.; read-out: KD
Observable: pKd
Answers are plain numbers, as −log10 of the molar value.

Completed entries (count: 3):
compound="CC(C)(C)C(=O)CN1C(=O)[C@H](NC(=O)Nc2cccc(C(=O)N[C@@H](CCC(=O)N[C@@H](Cc3ccc(OC4=C(/C=C/C5=[N+](CCCCS(=O)(=O)[O-])c6ccc(S(=O)(=O)O)cc6C5(C)C)CCC/C4=C\\C=C4\\N(CCCCS(=O)(=O)O)c5ccc(S(=O)(=O)O)cc5C4(C)C)cc3)C(=O)O)C(=O)O)c2)CN(C2CCCCC2)c2ccccc21 [Compound 45]" measured_result=8.64
compound="CC(C)(C)C(=O)CN1C(=O)[C@@H](NC(=O)Nc2cccc(C(=O)N[C@H](CCC(=O)N[C@@H](Cc3ccc(OC4=C(/C=C/C5=[N+](CCCCS(=O)(=O)[O-])c6ccc(S(=O)(=O)O)cc6C5(C)C)CCC/C4=C\\C=C4\\N(CCCCS(=O)(=O)O)c5ccc(S(=O)(=O)O)cc5C4(C)C)cc3)C(=O)O)C(=O)O)c2)CN(C2CCCCC2)c2ccccc21 [Compound 47]" measured_result=7.83
compound="CC(C)(C)C(=O)CN1C(=O)[C@H](NC(=O)Nc2cccc(C(=O)NCCCC(=O)N[C@@H](Cc3ccc(OC4=C(/C=C/C5=[N+](CCCCS(=O)(=O)[O-])c6ccc(S(=O)(=O)O)cc6C5(C)C)CCC/C4=C\\C=C4\\N(CCCCS(=O)(=O)O)c5ccc(S(=O)(=O)O)cc5C4(C)C)cc3)C(=O)O)c2)CN(C2CCCCC2)c2ccccc21 [Compound 48]" measured_result=9.05

Okay, now this compound:
Could you tell me which pKd is on file for CC(C)(C)C(=O)CN1C(=O)[C@H](NC(=O)Nc2cccc(C(=O)NCCCC(=O)N[C@H](Cc3ccc(OC4=C(/C=C/C5=[N+](CCCCS(=O)(=O)[O-])c6ccc(S(=O)(=O)O)cc6C5(C)C)CCC/C4=C\C=C4\N(CCCCS(=O)(=O)O)c5ccc(S(=O)(=O)O)cc5C4(C)C)cc3)C(=O)O)c2)CN(C2CCCCC2)c2ccccc21 [Compound 49] ?
7.86
